# Lookup of reported pIC50 keyed by entry
Tested on: symmetrical dimethylation of arginine (Di-Methyl Histone H4 Arginine 3) in TE11 cells
assay.details: cells
applied.conditions: Homo sapiens, TE-11, 72 h
Expect pIC50 as a plain number equal to -log10 of the molar concentration.

CCc1nn(C[C@@H](O)CNC2Cc3ccccc3C2)c(=O)c2ccc(C(=O)N3C4CCC3COC4)cc12 : 8.72

The record that follows has no pIC50 shown yet.
Record summary for Cc1nn(C[C@@H](O)CNC2Cc3ccccc3C2)c(=O)c2ccc(C(=O)N3C4CCC3COC4)cc12 : reported pIC50 = 7.74
